# System: Lymphocyte
# Protocol text: Inhibition of IL2 production from mouse activated lymphocytes
# Assay type: functional, cell-based
pIC50: −log10 of the molar value.
Reported property: pIC50

Here is how some compounds turned out for pIC50.
Compound: CCn1c(Nc2ccncc2F)nc2c(C(C)(C)O)csc2c1=O
pIC50: 6.59

Compound: CCn1c(Nc2ccncc2F)nc2c(C(C)O)csc2c1=O (stereo unspecified)
pIC50: 5.77

Compound: CCn1c(Nc2ccncc2F)nc2c(C3CCCN(C(=O)OC)C3)csc2c1=O (stereo unspecified)
pIC50: 6.80

(I) CCn1c(Nc2ccncc2F)nc2c(CCCO)csc2c1=O
(II) CCn1c(Nc2ccncc2F)nc2c(C3CCCN(C(=O)C(C)(C)CO)C3)csc2c1=O (stereo unspecified)
q: From the items above, decide which of I and II has the lower pIC50 reading. Choose, then provide that item's label.
a: I
(I: 6.32, II: 6.89)

---

# Protocol text: Solubility in phosphate buffer at pH 6.8
# Assay type: physicochemical
Reported property: solubility (mg/mL)

Molecule: CCn1c(Nc2ccccc2Cl)nc2ccsc2c1=O
Endpoint result: 0.0063

(A) CCn1c(Nc2ccccc2)nc2ccsc2c1=O
(B) CCn1c(Nc2ccncc2F)nc2c(C3CCCN(C(=O)C4(C#N)CC4)C3)csc2c1=O (stereo not given)
q: From the items above, decide which of A and B has the lower solubility reading. Choose, then provide that item's label.
a: A
(A: 0.0195 mg/mL, B: 0.0281 mg/mL)

(I) CCn1c(Nc2ccncc2F)nc2c(C3CCN(C(=O)OC)CC3)csc2c1=O
(II) CCc1ccccc1Nc1nc2ccsc2c(=O)n1CC
(III) CCn1c(Nc2ccncc2F)nc2c(CCCO)csc2c1=O
(IV) CCn1c(Nc2ccncc2F)nc2c(C(C)(C)O)csc2c1=O
(V) CCn1c(Nc2cccc(C)c2)nc2ccsc2c1=O
q: // ascending sort on recorded solubility Order the labels as requested and list them.
a: I, II, IV, III, V

(1) CCn1c(Nc2ccccc2C#N)nc2ccsc2c1=O
(2) CCn1c(Nc2ccc(C)cc2)nc2ccsc2c1=O
(3) CCn1c(Nc2ccncc2F)nc2c(C#N)csc2c1=O
q: Order these by solubility, descending, and give the full ranking. Order the labels as requested and list them.
a: 2, 3, 1

(I) CCn1c(NC2CCCC2)nc2ccsc2c1=O
(II) CCn1c(Nc2cccnc2)nc2ccsc2c1=O
q: Exercise: compare I and II ; which one has the greater solubility? Choose, then provide that item's label.
a: II
(II: 0.0416 mg/mL, I: 0.0121 mg/mL)

(a) CCn1c(Nc2ccccc2F)nc2ccsc2c1=O
(b) CCn1c(Nc2ccncc2F)nc2c(C(C)O)csc2c1=O (stereo not given)
q: From the items above, decide which of a and b has the lower solubility reading. Choose, then provide that item's label.
a: b
(b: 0.0054 mg/mL, a: 0.0261 mg/mL)

(1) CCn1c(Nc2ccccc2C)nc2ccsc2c1=O
(2) CCn1c(Nc2ccncc2F)nc2c(C3CCCN(C(=O)OC)C3)csc2c1=O (stereo not given)
q: Exercise: compare 1 and 2 ; which one has the greater solubility? Choose, then provide that item's label.
a: 2
(2: 0.0489 mg/mL, 1: 0.0101 mg/mL)

(a) CCn1c(Nc2ccncc2)nc2ccsc2c1=O
(b) CCn1c(Nc2ccncc2F)nc2c(C3CCCN(C(=O)C(C)(C)CO)C3)csc2c1=O (stereo not given)
q: Exercise: compare a and b ; which one has the greater solubility? Choose, then provide that item's label.
a: a

---

pIC50: −log10 of the molar value.
Consider compounds characterized by their pIC50 with cGMP-specific 3',5'-cyclic phosphodiesterase (Homo sapiens).
Reported property: pIC50

(P) CCn1c(Nc2ccncc2F)nc2c(C3CCCN(C(=O)OC)C3)csc2c1=O (configuration not stated)
(Q) CCn1c(Nc2ccncc2F)nc2c(C3CCCN(C(=O)C4(C#N)CC4)C3)csc2c1=O (configuration not stated)
q: From the items above, decide which of P and Q has the lower pIC50 reading. Choose, then provide that item's label.
a: Q

---

# Target or system: 3',5'-cyclic-AMP phosphodiesterase 4B (Homo sapiens, UniProt Q07343)
# Sequence (Q07343 whole entry): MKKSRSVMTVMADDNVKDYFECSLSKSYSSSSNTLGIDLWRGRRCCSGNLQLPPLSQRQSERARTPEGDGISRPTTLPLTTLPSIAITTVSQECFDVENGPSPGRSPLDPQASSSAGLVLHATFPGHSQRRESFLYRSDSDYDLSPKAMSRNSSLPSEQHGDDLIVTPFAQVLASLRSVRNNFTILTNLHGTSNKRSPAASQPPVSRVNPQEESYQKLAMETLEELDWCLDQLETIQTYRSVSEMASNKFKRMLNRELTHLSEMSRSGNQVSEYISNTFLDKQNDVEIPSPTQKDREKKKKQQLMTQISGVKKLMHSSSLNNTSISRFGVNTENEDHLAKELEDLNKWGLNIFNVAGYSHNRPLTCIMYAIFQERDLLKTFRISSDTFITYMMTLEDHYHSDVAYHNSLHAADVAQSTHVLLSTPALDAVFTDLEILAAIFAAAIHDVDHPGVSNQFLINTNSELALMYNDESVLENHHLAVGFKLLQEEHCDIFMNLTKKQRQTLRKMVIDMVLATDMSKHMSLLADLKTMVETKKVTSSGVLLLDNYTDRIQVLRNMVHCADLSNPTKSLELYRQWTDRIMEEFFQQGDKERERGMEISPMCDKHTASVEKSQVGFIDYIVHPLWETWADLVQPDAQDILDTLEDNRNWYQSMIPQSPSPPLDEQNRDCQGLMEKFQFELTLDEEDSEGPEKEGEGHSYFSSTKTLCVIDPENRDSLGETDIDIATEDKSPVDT
Reported property: IC50 (nM)

Here is how some molecules turned out for IC50.
Molecule: CCn1c(Nc2ccccc2Cl)nc2ccsc2c1=O
Endpoint result: 3000
--
Molecule: CCn1c(Nc2ccccc2C)nc2ccsc2c1=O
Endpoint result: 4300
--
Molecule: CCn1c(Nc2ccncc2F)nc2c(C#N)csc2c1=O
Endpoint result: 670
--
Molecule: CCn1c(Nc2ccccc2)nc2ccsc2c1=O
Endpoint result: 7400
--
Molecule: CCn1c(Nc2ccncc2F)nc2c(C(C)(C)O)csc2c1=O
Endpoint result: 56

(P) CCn1c(Nc2ccncc2F)nc2c(C(C)O)csc2c1=O (stereo not drawn)
(Q) CCn1c(Nc2ccncc2F)nc2c(C3CCCN(C(=O)C4(C#N)CC4)C3)csc2c1=O (stereo not drawn)
q: Exercise: compare P and Q ; which one has the greater IC50? Choose, then provide that item's label.
a: P
(P: 610 nM, Q: 20 nM)

---

Consider compounds characterized by their pIC50 with High affinity 3',5'-cyclic-AMP phosphodiesterase 7A (Homo sapiens).
pIC50: −log10 of the molar value.
Reported property: pIC50

Compound: CCn1c(Nc2ccncc2F)nc2c(C3CCCN(C(=O)C4(C#N)CC4)C3)csc2c1=O (stereo not given)
pIC50: 9.49

(A) CCn1c(Nc2ccccc2C)nc2ccsc2c1=O
(B) CCn1c(Nc2ccncc2)nc2ccsc2c1=O
q: From the items above, decide which of A and B has the lower pIC50 reading. Choose, then provide that item's label.
a: B
(B: 6.20, A: 7.06)

---

# Target or system: cGMP-inhibited 3',5'-cyclic phosphodiesterase 3A (Homo sapiens, UniProt Q14432)
# Sequence (Q14432 whole entry): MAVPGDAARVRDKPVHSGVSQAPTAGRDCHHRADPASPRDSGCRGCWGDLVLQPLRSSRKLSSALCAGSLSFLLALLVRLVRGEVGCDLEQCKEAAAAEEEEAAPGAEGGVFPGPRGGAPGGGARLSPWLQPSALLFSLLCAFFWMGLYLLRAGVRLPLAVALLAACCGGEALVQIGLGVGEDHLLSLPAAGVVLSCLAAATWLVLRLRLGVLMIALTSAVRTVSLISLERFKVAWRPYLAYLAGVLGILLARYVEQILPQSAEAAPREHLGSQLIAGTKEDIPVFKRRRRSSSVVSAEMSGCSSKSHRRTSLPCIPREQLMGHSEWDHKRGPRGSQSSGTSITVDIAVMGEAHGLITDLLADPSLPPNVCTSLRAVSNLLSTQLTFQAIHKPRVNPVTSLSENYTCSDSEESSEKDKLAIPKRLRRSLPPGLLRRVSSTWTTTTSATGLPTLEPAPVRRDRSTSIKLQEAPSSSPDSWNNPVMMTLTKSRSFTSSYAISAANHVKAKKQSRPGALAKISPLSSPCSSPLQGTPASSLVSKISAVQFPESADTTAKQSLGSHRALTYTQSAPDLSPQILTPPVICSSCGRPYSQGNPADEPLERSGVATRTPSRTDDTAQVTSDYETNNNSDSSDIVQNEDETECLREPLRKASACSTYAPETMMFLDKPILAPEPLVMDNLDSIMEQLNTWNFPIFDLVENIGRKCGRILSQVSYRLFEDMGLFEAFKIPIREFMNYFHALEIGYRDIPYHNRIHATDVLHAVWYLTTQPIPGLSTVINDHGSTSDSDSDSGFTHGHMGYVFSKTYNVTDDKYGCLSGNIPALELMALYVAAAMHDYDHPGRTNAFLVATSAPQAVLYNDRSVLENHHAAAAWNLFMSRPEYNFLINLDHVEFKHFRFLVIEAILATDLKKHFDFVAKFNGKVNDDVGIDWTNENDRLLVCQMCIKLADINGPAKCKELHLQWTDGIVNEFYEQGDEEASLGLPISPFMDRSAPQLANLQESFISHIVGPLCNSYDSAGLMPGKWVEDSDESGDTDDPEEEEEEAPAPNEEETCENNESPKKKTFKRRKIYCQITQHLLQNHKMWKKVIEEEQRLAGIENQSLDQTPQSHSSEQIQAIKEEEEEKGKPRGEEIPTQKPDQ
Reported property: pIC50
// field semantics: pIC50 = negative decimal log of concentration (mol/L)

q: # get_value(readout='pIC50', item= CCn1c(Nc2ccncc2F)nc2c(C3CCCN(C(=O)OC)C3)csc2c1=O (stereo unspecified) )
a: 7.54

---

# Target or system: High affinity 3',5'-cyclic-AMP phosphodiesterase 7A (Homo sapiens, UniProt Q13946)
# Sequence (Q13946 whole entry): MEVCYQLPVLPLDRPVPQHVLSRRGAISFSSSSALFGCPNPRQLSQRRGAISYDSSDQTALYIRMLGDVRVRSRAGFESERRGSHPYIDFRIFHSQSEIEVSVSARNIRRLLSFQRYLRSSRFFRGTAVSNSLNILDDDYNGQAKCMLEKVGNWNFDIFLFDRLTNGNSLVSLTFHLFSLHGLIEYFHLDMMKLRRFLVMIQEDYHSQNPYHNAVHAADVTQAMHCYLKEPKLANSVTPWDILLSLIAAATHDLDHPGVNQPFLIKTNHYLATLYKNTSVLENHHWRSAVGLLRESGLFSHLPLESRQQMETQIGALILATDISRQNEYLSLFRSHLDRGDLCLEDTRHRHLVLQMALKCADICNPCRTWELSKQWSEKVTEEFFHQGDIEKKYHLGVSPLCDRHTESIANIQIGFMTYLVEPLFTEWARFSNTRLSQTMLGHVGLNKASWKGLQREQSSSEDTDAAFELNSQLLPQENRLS
Reported property: IC50 (nM)

Molecule: CCn1c(Nc2ccncc2F)nc2c(C3CCN(C(=O)OC)CC3)csc2c1=O
Target or system: High affinity 3',5'-cyclic-AMP phosphodiesterase 7A (Homo sapiens, UniProt Q13946)
Endpoint result: 1.1

(1) CCn1c(Nc2ccncc2F)nc2c(C(C)O)csc2c1=O (configuration not stated)
(2) CCn1c(Nc2ccccc2F)nc2ccsc2c1=O
(3) CCn1c(Nc2ccncc2F)nc2c(C3CCCN(C(=O)OC)C3)csc2c1=O (configuration not stated)
(4) CCn1c(Nc2ccccc2Cl)nc2ccsc2c1=O
(5) CCn1c(Nc2ccccc2)nc2ccsc2c1=O
q: Order these by IC50, descending, and give the full ranking. Order the labels as requested and list them.
a: 5, 2, 4, 1, 3
